Ref: patent US20230416227A1

target: human factor XIa (Homo sapiens, UniProt P03951)
Sequence (P03951 388-625 limits assumed): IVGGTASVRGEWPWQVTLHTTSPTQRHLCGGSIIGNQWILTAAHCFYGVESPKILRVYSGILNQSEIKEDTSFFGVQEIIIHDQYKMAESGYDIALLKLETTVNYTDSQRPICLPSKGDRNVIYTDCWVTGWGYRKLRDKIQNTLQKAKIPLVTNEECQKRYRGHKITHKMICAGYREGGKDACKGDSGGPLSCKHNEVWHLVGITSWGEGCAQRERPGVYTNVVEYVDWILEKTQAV
Sequence (P03951 19-387 partner limits assumed): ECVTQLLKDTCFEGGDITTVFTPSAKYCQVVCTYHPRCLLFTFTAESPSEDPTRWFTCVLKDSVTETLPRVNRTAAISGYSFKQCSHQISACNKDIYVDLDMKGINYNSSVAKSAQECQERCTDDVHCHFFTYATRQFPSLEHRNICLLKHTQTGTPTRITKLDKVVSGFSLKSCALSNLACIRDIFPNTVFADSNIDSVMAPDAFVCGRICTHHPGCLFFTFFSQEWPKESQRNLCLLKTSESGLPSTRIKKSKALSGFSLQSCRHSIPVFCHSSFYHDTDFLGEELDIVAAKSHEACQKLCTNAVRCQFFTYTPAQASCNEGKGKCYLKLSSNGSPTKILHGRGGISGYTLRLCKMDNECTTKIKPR
Classification by IC50 follows these ranges: low band (below 1000 nM), middle band (1000 nM to below 2000 nM), high band (2000 nM or more)

CC(c1cnc(N2CC[C@H](O)C2)nc1)n1cc(NC(=O)c2cncc(-c3c(C(F)F)ccc(Cl)c3F)n2)cn1 (mixture of isomers)
high band
O=C(Nc1cnn(C(c2cnc(N3CCC3)nc2)C(F)F)c1)c1cncc(-c2c(C(F)F)ccc(Cl)c2F)n1 (single isomer, unassigned)
high band
CC(c1cnc(N2CCC2)nc1)n1cc(NC(=O)c2cncc(-c3c(OC(F)F)ccc(Cl)c3F)n2)cn1 (single isomer, unassigned) [Example 57]
middle band
C[C@H](O)c1ncc(-c2c(C(F)F)ccc(Cl)c2F)nc1C(=O)Nc1cnn(Cc2cnc(N3CCC3)nc2)c1 (single isomer, unassigned)
low band
CC(c1cnc(N2CCC2)nc1)n1cc(NC(=O)c2cncc(-c3c(Br)ccc(Cl)c3F)n2)cn1 (stereo not drawn)
high band
Cc1ncc(-c2c(C(F)F)ccc(Cl)c2F)nc1C(=O)Nc1cnn(C(CO)c2cnc(N3CCC3)nc2)c1 (single isomer, unassigned) [Example 46]
low band
CC(c1cnc(N2CCC2)cn1)n1cc(NC(=O)c2cncc(-c3c(C(F)F)ccc(Cl)c3F)n2)cn1 (single isomer, unassigned)
middle band
O=C(Nc1cnn(Cc2cnc(N3CCC3)nc2)c1)c1nc(-c2c(C(F)F)ccc(Cl)c2F)cnc1C(F)F
low band
C[C@@H](c1cnc(N2C[C@@H]3C[C@@H]3[C@@H]2CO)nc1)n1cc(NC(=O)c2cncc(-c3c(C(F)F)ccc(Cl)c3F)n2)cn1 (single isomer, unassigned)
high band
NC(=O)c1ncc(-c2c(C(F)F)ccc(Cl)c2F)nc1C(=O)Nc1cnn(Cc2cnc(N3CCC3)nc2)c1
high band

Now turn to the next compound.
Band for O=C(Nc1cnn(Cc2ccc(N3CCC3)nc2)c1)c1cncc(-c2c(OC(F)F)ccc(Cl)c2F)n1 ? high band
